# system: T1, CRBN, Q96SW2;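 further: pooled lentiviral library of zinc finger degron-EGFP fusions in mCherry-positive Jurkat cells, FACS-sorted after compound exposure, with degron abundance counted by next-generation sequencing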
# T1 chain: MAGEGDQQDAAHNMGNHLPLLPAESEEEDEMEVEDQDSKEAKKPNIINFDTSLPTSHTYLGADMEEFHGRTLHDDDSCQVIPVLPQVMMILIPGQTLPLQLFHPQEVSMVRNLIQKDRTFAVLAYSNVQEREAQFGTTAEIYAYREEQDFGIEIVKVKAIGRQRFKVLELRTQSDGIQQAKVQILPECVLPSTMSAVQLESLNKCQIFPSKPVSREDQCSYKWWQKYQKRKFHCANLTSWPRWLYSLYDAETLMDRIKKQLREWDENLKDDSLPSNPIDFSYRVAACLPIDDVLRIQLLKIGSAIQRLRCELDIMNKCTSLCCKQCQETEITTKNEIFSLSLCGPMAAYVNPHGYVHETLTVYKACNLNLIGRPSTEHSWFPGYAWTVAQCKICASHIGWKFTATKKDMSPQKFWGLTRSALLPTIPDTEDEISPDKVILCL
# experiment notes: log2 fold change of degron read counts, EGFP-low vs EGFP+ sorted cells (limma voom), compound-induced degradation; higher = more compound-induced degradation of the degron-EGFP fusion; degrons are variants of IKZF1/3 zinc finger 2; compound dose not given here
# run conditions: Jurkat; 18 h; compound: thalidomide
The full ranking holds about 8,300 sequences; the median of “log2 fold change of degron read counts, EGFP-low vs EGFP+ sorted cells (limma voom), compound-induced degradation” is about -1.1, and the highest 2% start at about 3.2. The entries come from a sample that favours the highest values as a whole.
Reported log2 fold change of degron read counts values for a set of sequences
value kind: log2 fold change of degron read counts

>>> result_value("FWCPVCGASFTQKGNLLRHIKL [46F_47W_49P_50V_52G_53A_54S_55F_67L_, Q9UKT9]")
1.35
>>> result_value("FCCEQCGAQFTQKGNLLRHIKL [46F_47C_49E_50Q_52G_53A_54Q_55F_67L_, Q9UKT9]")
-0.701
>>> result_value("FICDICGARFTQKGNLLRHIKL [46F_47I_49D_50I_52G_53A_54R_55F_67L_, Q9UKT9]")
1.41
>>> result_value("FACEICGHVFTQKGNLLRHIKL [46F_47A_49E_50I_52G_53H_54V_55F_67L_, Q9UKT9]")
-2.72
>>> result_value("FQCNVCGAPFTQKGNLLRHIKL [46F_47Q_49N_50V_52G_53A_54P_55F_67L_, Q9UKT9]")
2.69
>>> result_value("FRCDVCGAPFTQKGNLLRHIKL [46F_47R_49D_50V_52G_53A_54P_55F_67L_, Q9UKT9]")
2.88
>>> result_value("FVCDQCGAPFTQKGNLLRHIKL [46F_47V_49D_50Q_52G_53A_54P_55F_67L_, Q9UKT9]")
-0.0169
>>> result_value("FLCNVCGAPFTQKGNLLRHIKL [46F_47L_49N_50V_52G_53A_54P_55F_67L_, Q9UKT9]")
1.32
>>> result_value("FLCNICGAHFTQKGNLLRHIKL [46F_47L_49N_50I_52G_53A_54H_55F_67L_, Q9UKT9]")
-0.376
>>> result_value("FFCDVCGAPFTQKGNLLRHIKL [46F_47F_49D_50V_52G_53A_54P_55F_67L_, Q9UKT9]")
-0.766
>>> result_value("FLCPQCGAKFTQKGNLLRHIKL [46F_47L_49P_50Q_52G_53A_54K_55F_67L_, Q9UKT9]")
-0.831
>>> result_value("LWCEICGFTCTQKGNLLRHIKL [46L_47W_49E_50I_52G_53F_54T_55C_67L_, Q9UKT9]")
1.83
>>> result_value("FLCPVCGASFTQKGNLLRHIKL [46F_47L_49P_50V_52G_53A_54S_55F_67L_, Q9UKT9]")
1.37
>>> result_value("FGCDVCGAPFTQKGNLLRHIKL [46F_47G_49D_50V_52G_53A_54P_55F_67L_, Q9UKT9]")
-2.21
>>> result_value("FFCEICGRSFTQKGNLLRHIKL [46F_47F_49E_50I_52G_53R_54S_55F_67L_, Q9UKT9]")
-0.893
>>> result_value("FFCPICGAGFTQKGNLLRHIKL [46F_47F_49P_50I_52G_53A_54G_55F_67L_, Q9UKT9]")
0.485
>>> result_value("FLCPICGREFTQKGNLLRHIKL [46F_47L_49P_50I_52G_53R_54E_55F_67L_, Q9UKT9]")
0.04
>>> result_value("FFCNQCGRDFTQKGNLLRHIKL [46F_47F_49N_50Q_52G_53R_54D_55F_67L_, Q9UKT9]")
-2.85
>>> result_value("FCCPICGRCFTQKGNLLRHIKL [46F_47C_49P_50I_52G_53R_54C_55F_67L_, Q9UKT9]")
0.188
